I'd appreciate it if you could supply %E (% entrapment) 2nd IM values for the items below.
# Method: Percentage of encapsulated RNA and RNA concentration of replicon liposomes (Quant-iT RiboGreen)
# Format: physicochemical
# Applied Conditions: RSV-F replicon RNA LNP prepared for 2nd immunization
Numbers only, in %.

CCCCC/C=C\C/C=C\CCCCCCCC(=O)OCC(COC(=O)CCC(OCCCCCCCC)OCCCCCCCC)COC(=O)OC1CCN(C)CC1 (stereo not shown) ... 85.6
CCCCC/C=C\C/C=C\CCCCCCCC(=O)OCC(COC(=O)CCC(OCCCCCCCC)OCCCCCCCC)COC(=O)C1CCN(C)C1 (stereo not shown) ... 93.9
CCCCC/C=C\C/C=C\CCCCCCCC(=O)OCC(COC(=O)CCCCCCC/C=C\C/C=C\CCCCC)COC(=O)C1(C)CCN(C)C1 (stereo not shown) ... 91.99

Kindly consider the entry below.
What measured %E (% entrapment) 2nd IM goes with CCCCC/C=C\C/C=C\CCCCCCCC(=O)OCC(COC(=O)CCC(OCCCCCCCC)OCCCCCCCC)COC(=O)CCN(C)C (stereo not shown) ? 94.72
